We begin with a simple list: items and their reported Relative Fluorescence Intensity.
Molecular target: T1, PKC-α (endogenous, human cell lysates and cells) (human, UniProt P17252 2-672)
T1 construct: Endogenous protein of human cell lysates, on Western blot membranes (denatured) or in fixed cells; also called PKC-alpha; PKC-A
Assay: anti-PKC-α immunofluorescence, V5E-transfected IMR-32 cells loaded with PRE (label on PKC-α and V5E); control with endocytosis reagent 113

{"columns": ["BINDER", "Relative Fluorescence Intensity"],
 "data": [
  ["Ac-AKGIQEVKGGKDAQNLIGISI-NH2 (Synthetic peptide; also called peptide PRE 5) [PRE 5]", 124],
  ["Ac-KDAQNLI-NH2 (Synthetic peptide; also called peptide PRE 12; Ac-KDAQNLI-NH2) [PRE 12]", 124],
  ["Ac-RDAQNLIGISI-NH2 (Synthetic peptide; also called peptide PRE 11) [PRE 11]", 131],
  ["Ac-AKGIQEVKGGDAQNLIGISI-NH2 (Synthetic peptide; also called peptide PRE 3) [PRE 3]", 83],
  ["Ac-ISIGILQNADK-NH2 (Synthetic peptide (retro form of PRE 4); also called peptide PRE 7) [PRE 7]", 75],
  ["Ac-KDAQNLIGISI-NH2 (Synthetic peptide; also called peptide PRE 4) [PRE 4]", 79],
  ["ILEDKGGDAQNLIGISI (Synthetic peptide; termini given free; also called peptide PRE 8) [PRE 8]", 81],
  ["RRKKGGKDFVVKR (Synthetic peptide, solid phase synthesis; termini given free; also called peptide PRE 1) [PRE 1]", 79],
  ["Ac-KDANQLIGISI-NH2 (Synthetic peptide; also called peptide PRE 6) [PRE 6]", 73],
  ["Ac-ISIGILNQADK-NH2 (Synthetic peptide; also called peptide PRE 10) [PRE 10]", 122]
]}
